system: HEK293; experiment: Cytotoxicity against human HEK293 cells over expressing human SERT assessed as cell viability after 48 hrs by neutral red assay; format: cell-based; conditions: HEK293, 48 h
observation.type: EC50 (µM)

- CCNC(Cc1ccc(SC)cc1)Cc1ccc(SC)cc1: 25.7
- CSc1ccc(CC(C)NC=O)cc1 (configuration not stated): 1350
- CSc1ccc(Cc2ccncn2)cc1: 16.6
- CNC(C)Cc1ccc2c(c1)OCO2 (configuration not stated): 490
- CCC(Cc1ccc(SC)cc1)NC (configuration not stated): 55
- CCC(Cc1ccc(SC)cc1)NC=O (configuration not stated): 64.6
- CSc1ccc(CC(Cc2ccc(SC)cc2)NC(C)=O)cc1: 38.9
